system: PC-3; experiment: Cytotoxicity against human PC3 cells after 96 hrs by SRB assay; conditions: PC-3, 96 h
Record form. Attribute: pIC50. Fill in for each entry.
Give bare numbers, as −log10 of the molar value.

- smiles string: "COc1cc(NC(=O)[C@H]2CSC(c3ccccc3)=N2)cc(OC)c1OC"
  test target: "PC-3"
  parameter: "pIC50"
  recorded number: 4.88
- smiles string: "COc1cc(C(=O)c2csc(-c3ccc(C#N)cc3)n2)cc(OC)c1OC"
  test target: "PC-3"
  parameter: "pIC50"
  recorded number: 7.52
- smiles string: "COc1ccc(-c2nc(C(=O)c3cc(OC)c(OC)c(OC)c3)cs2)cc1OC"
  test target: "PC-3"
  parameter: "pIC50"
  recorded number: 7.16

Please examine the following record next.
Q. Fill blank: measured pIC50 of the molecule "COc1cc(C(=O)c2csc(-c3cccc(F)c3)n2)cc(OC)c1OC" is ____.
A. 7.62
